meta.source: paper PMC4552634

Listed next: entries and their corresponding % Inhibition.
- Test system: P. falciparum stage V gametocytes
- Parameters: BacTiter-Glo ATP luminescence viability of purified stage V gametocytes in 384-well plates, per cent inhibition versus DMSO
- experimental-conditions: 48 h, 5 µM; inhibitor
Hit rate of the full screen: of about 13,000 compounds, about 3,200 (25%) showed an effect of 50% or more. Some of the results follow.
observation-type: % Inhibition (%)

INSERT INTO assay_data (molecule, assay_system, test_value) VALUES
  ('O=C(Nc1cccc(-c2cccc(-c3nc4ccccc4[nH]3)c2)c1)Nc1ccc(F)c(F)c1F', 'P. falciparum stage V gametocytes', -1.107),
  ('Cc1nn(-c2ccccc2)c2c1C(c1ccc(C(C)C)cc1)N1C(=N2)N(Cc2ccccc2)c2ccccc21 (centres unmarked)', 'P. falciparum stage V gametocytes', -90.94),
  ('CCN(CC)CCCC(C)Nc1cc(C=Cc2ccccc2Cl)nc2cc(Cl)ccc12 (centres unmarked)', 'P. falciparum stage V gametocytes', 59.52),
  ('CCOC(=O)Nc1cc(-c2csc(N=C(N)N)n2)cc([N+](=O)[O-])c1', 'P. falciparum stage V gametocytes', -82.77),
  ('COc1ccc2ccccc2c1CCCCN1CCN(CC(c2ccc(F)cc2)N2CCN(C(C)C)CC2)CC1 (centres unmarked)', 'P. falciparum stage V gametocytes', 46.9),
  ('O=C(NC(CCCN1CCC(c2ccccc2)CC1)c1ccc(Cl)c(Cl)c1)c1cc(C(F)(F)F)cc(C(F)(F)F)c1 (centres unmarked)', 'P. falciparum stage V gametocytes', 23.85),
  ('CCc1nnc2sc(-c3cccc(NC(=O)c4ccc(OC)c(Cl)c4)c3)nn12', 'P. falciparum stage V gametocytes', -8.625),
  ('CC1CN(c2ccnc3ccc(Sc4ccc(Oc5ccccc5)cc4)cc23)CC(C)N1 (centres unmarked)', 'P. falciparum stage V gametocytes', 94.55),
  ('O=C(Nc1cccc(-c2cccc(-c3nc4ccc(F)cc4[nH]3)c2)c1)c1csnn1', 'P. falciparum stage V gametocytes', 16.2),
  ('Cc1ccnc(NC(c2cccc(Cl)c2Cl)c2ccc3cccnc3c2O)c1 (centres unmarked)', 'P. falciparum stage V gametocytes', 94.28),
  ('CCOC(=O)c1ccc(NC(=O)Nc2ccc(-c3cccc(-c4nc5ccc(F)cc5[nH]4)c3)cc2)cc1', 'P. falciparum stage V gametocytes', -27.05);

----------
- Tested on: P. falciparum stage V gametocytes
- Design: BacTiter-Glo ATP luminescence viability of purified stage V gametocytes in 384-well plates, per cent inhibition versus DMSO
- experimental-conditions: 48 h, 5 µM; inhibitor
About 3,200 (25%) of roughly 13,000 compounds showed an effect of 50% or more. The list shows a part of the results.
observation-type: % Inhibition (%)

INSERT INTO results (compound, observation_type, test_value) VALUES
  ('CNC(=O)c1cncc(/C=C/c2ccccc2S(N)(=O)=O)c1', '% Inhibition', 49.76),
  ('CCCc1cc(OC)c(CC2c3cc(O)c(Cl)cc3CCN2C)cc1OC (centres unmarked)', '% Inhibition', 27.65),
  ('CCCCOc1ccc(N2C(N)=NC(N)=NC2(C)C)cc1', '% Inhibition', -11.62),
  ('COc1cccc(C(=O)Nc2ccc(Oc3ccc(Cl)cc3)cc2)c1', '% Inhibition', -8.512),
  ('COc1ccc(CCNCc2ccc3nc(N)c(C)cc3c2)cc1', '% Inhibition', 30.17),
  ('N#Cc1cc(C(=O)Nc2ccccc2)c(N)nc1SCC(=O)Nc1ccc(Br)cc1', '% Inhibition', -53.64),
  ('CCCCCN1CCN(Cc2cccc(NC(=O)c3ccc(Cl)c(Cl)c3)c2)CC1', '% Inhibition', -65.82),
  ('Cc1ccc(Cc2cccc3nc(N)nc(N)c23)cc1', '% Inhibition', -6.399),
  ('CCCCC(NCC)c1ccc(OCCOc2ccc(C(CCCC)NCC)cc2)cc1 (centres unmarked)', '% Inhibition', 115.6),
  ('CC[C@H]1CN2CC[C@@H]1C[C@H]2[C@H](O)c1cc(N2CCC(C(N)=O)CC2)nc2ccc(OC)cc12', '% Inhibition', -22.84),
  ('Cc1ccc(CN2CCN(c3cc4c(cc3Cl)CCN4C(=O)Cc3ccc(NC(=O)c4ccc(C(F)(F)F)cc4)cc3)CC2)cc1', '% Inhibition', 28.44);
